- measurement.target: T1, full-length human IL-36R on cells (human, UniProt Q9HB29 20-575)
- T1 sequence (looked up): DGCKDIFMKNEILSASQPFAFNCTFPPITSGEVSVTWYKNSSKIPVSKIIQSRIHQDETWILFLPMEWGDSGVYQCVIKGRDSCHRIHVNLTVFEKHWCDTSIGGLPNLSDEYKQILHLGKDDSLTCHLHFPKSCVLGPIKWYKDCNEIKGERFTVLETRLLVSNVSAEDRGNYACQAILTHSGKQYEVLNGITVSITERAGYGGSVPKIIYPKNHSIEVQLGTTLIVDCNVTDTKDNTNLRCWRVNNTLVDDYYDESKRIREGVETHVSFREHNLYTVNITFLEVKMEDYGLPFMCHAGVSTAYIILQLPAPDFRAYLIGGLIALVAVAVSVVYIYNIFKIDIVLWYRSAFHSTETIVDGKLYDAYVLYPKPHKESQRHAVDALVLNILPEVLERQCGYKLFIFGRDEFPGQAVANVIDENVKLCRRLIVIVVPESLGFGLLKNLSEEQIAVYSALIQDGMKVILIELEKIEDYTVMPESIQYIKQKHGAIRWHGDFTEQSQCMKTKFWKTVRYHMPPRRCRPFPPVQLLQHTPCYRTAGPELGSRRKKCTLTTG
- method: cell-based or functional assay
Entries and their IC50 [M], NFκB-luciferase, 15 pM hIL-36β
# number only, unit M dropped from output

{"binder": "H4H14708P2 (antibody, human IgG4 S228P, kappa, V domains shown) VH: EVQLVESGGDLVQPGRSLRLSCAASGFTFDDYAMHWVRQAPGKGLEWVSVISWNSDVIAYSDSVKGRFTISRDNAKNSLYLQMNSLRTEDTALYYCTKGHKWSFFDYWGQGTLVTVSS VL: EIVLTQSPATLSLSPGERATLSCRASQSISSYLAWYQQKPGQAPRLLIFNVANRATDIPARFSGSGSGTDFTLTISSLEPEDFAVYYCQQRSNWPLTFGGGTKVEIKR", "IC50 [M], NFκB-luciferase, 15 pM hIL-36β / M": "2e-10"}

Prompt: So what's the measured IC50 [M], NFκB-luciferase, 15 pM hIL-36β for this one? H4H14728P (antibody, human IgG4 S228P, kappa, V domains shown) VH: QVQLQESGPGLVKPSQTLSLTCTVSGGSISSADYYWSWIRQHPGKGLEWIGSIYYTGSTYYNPSLKSRLTISIDTSENQFSLKLTSLTAADTAVYYCASEEANWGSHFDSWGQGTLVTVSS VL: DIQMTQSPSSLSASVGDRVTITCRASQSIDNFLNWYQQKPGKAPKLLIYAASSLQSGVPSRFSGSGSGTDFTLTISSLQPEDFASYYCQHSHSAHPITFGQGTRLEIKR
Completion: 1.3e-09

Prompt: So what's the measured IC50 [M], NFκB-luciferase, 15 pM hIL-36β for this one? H4H14699P2 (antibody, human IgG4 S228P, kappa, V domains shown, Fully human anti-IL-36R antibody) VH: EVQLVESGGGLVQPGRSLRLSCAASGFTFDDYAIHWVRQAPGKGLEWVSVISWNSDIIGYADSVKGRFTVSRDNAKNSLYLQMNSLRTEDTALYYCAKGYNWNFFDYWGQGTLVTVSS VL: EIVLTQSPATLSLSPGERATLSCRASQSVSSYLAWYQQKPGQAPRLLIYNAANRATDIPARFSGSGSGTDFTLTISSLEPEDFAVYYCQQRSNWPLTFGGGTKVEIKR
Completion: 1.3e-10
